System Name: pig synovial collagenase (Sus scrofa)
Construct: pig synovial collagenase (0.04 μg protein); from tissue; host or cells: pig synovium (only from the enzyme's name; preparation not described)
Protocol Text: Collagenase assay: degradation of type I collagen (SDS-PAGE/densitometry or spectrophotometric)
Format: biochemical
Assay Context: mixture containing approximately equal amounts of the two diastereomers; read-out: IC50 (uM), diastereomers not resolved
Assay Metric: IC50 (µM)

# Compound, System Name, Result
measured = [
    ("CC(C)CC(CS)C(=O)N[C@@H](Cc1ccccc1)C(=O)N[C@@H](Cc1ccccc1)C(N)=O (stereo partly shown) [Compound 6, HSCH2 CH[CH2 CH(CH3)2]COPhePheNH2]", "pig synovial collagenase (Sus scrofa)", 2),
]

1: CC(C)CC(CS)C(=O)N[C@@H](Cc1c[nH]c2ccccc12)C(=O)N[C@@H](C)C(N)=O (stereo partly shown) [Compound 4, HSCH2 CH[CH2 CH(CH3)2]COTrpAlaNH2]
2: CCOC(=O)[C@H](C)NC(=O)[C@H](CCCCNC(=O)OC(C)(C)C)NC(=O)C(CS)CC(C)C (stereo partly shown)
3: CC(C)CC(CS)C(=O)N[C@@H](Cc1ccc2ccccc2c1)C(=O)N[C@@H](C)C(N)=O (stereo partly shown) [Compound 7, HSCH2 CH[CH2 CH(CH3)2]CCNalAlaNH2]
In this exercise, place the 3 compounds in ascending sequence of their recorded IC50. Provide your answer as the labels ordered per the instruction.
3, 1, 2

* * *

System Name: PA elastase (Pseudomonas aeruginosa, UniProt P14756)
Sequence (P14756 198-498): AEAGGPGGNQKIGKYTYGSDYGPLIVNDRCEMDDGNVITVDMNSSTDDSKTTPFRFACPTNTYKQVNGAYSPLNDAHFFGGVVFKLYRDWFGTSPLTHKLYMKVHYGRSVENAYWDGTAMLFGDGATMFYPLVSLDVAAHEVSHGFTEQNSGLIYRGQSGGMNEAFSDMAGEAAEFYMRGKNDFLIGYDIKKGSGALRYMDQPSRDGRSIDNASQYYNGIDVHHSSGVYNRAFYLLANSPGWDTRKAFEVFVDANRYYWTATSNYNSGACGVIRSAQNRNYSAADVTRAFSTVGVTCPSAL
Protocol Text: biochemical
Assay Metric: IC50 (µM)
Give the value in µM but do not write µM after it.

The following molecules have reported results that may help.
# Molecule, System Name, Assay Metric, Result
rows = [
    ("CN(C)[C@@H]1C(O)=C(C(N)=O)C(=O)[C@@]2(O)C(O)=C3C(=O)c4c(O)cccc4[C@@](C)(O)[C@H]3C[C@@H]12 [Tetracycline, tetracycline]", "PA elastase (Pseudomonas aeruginosa, UniProt P14756)", "IC50", 660),
    ("CC(C)CC(CS)C(=O)N[C@@H](Cc1ccccc1)C(=O)N[C@@H](C)C(N)=O (stereo partly shown) [Compound 3]", "PA elastase (Pseudomonas aeruginosa, UniProt P14756)", "IC50", 0.3),
    ("CN(C)c1ccc(O)c2c1C[C@H]1C[C@H]3[C@H](N(C)C)C(O)=C(C(N)=O)C(=O)[C@@]3(O)C(O)=C1C2=O [Minocycline, minocycline]", "PA elastase (Pseudomonas aeruginosa, UniProt P14756)", "IC50", 260),
]

Item under review: C[C@H]1c2cccc(O)c2C(=O)C2=C(O)[C@]3(O)C(=O)C(C(N)=O)=C(O)[C@@H](N(C)C)[C@@H]3[C@@H](O)[C@@H]21 [Doxycycline, doxycycline] . Reported IC50?
110

* * *

Reported IC50 values for the following compounds.
System Name: pig synovial collagenase (Sus scrofa, UniProt P21692)
Construct: pig synovial collagenase (0.04 μg protein); from tissue; host or cells: pig synovium (only from the enzyme's name; preparation not described)
Sequence (P21692 100-469): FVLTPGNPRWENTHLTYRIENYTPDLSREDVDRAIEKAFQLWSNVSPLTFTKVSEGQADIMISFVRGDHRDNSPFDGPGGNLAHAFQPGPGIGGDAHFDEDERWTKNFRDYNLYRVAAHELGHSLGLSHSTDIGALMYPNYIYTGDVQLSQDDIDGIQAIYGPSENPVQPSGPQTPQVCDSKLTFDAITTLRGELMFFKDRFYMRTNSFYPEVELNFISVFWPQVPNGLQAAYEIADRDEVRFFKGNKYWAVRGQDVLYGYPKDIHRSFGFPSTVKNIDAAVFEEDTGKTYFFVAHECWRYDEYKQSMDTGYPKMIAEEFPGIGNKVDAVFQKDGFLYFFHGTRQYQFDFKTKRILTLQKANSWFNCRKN
Protocol Text: Collagenase assay: degradation of type I collagen (SDS-PAGE/densitometry or spectrophotometric)
Type: biochemical
Assay Context: slow-eluting diastereomer (C18 reversed phase); approximate concentration giving 50% inhibition of collagen degradation; read-out: IC50 (uM) Slow Isomer
Experimental: Collagenase activity was determined after electrophoretic separation of degraded from undegraded type I collagen by polyacrylamide gel electrophoresis and densitometry as follows. […] A spectrophotometric method was also utilized in some cases to determine collagenase activity [Lindy, S. et al., European J. Biochem. 156: 1-4 (1986)]. […] Stock solutions of inhibitors were prepared in 1 mM acetic acid in ethanol and the sulfhydryl titer determined colorimetrically by the method of Ellman (1956). […]
Give the value in µM but do not write µM after it.

# Compound, Measure Unit, IC50
rows = [
    ("CC(C)CC(CS)C(=O)N[C@@H](Cc1ccccc1)C(=O)N[C@@H](C)C(N)=O (some centres unmarked) [Compound 3]", "µM", 0.04),
]

Now for another entry.
Find IC50 (pig synovial collagenase (Sus scrofa, UniProt P21692)) for the entry CC(C)CC(CS)C(=O)N[C@@H](Cc1ccccc1)C(=O)N[C@@H](CC(C)C)C(N)=O (some centres unmarked) [Compound 5]
4

* * *

System Name: Collagenase, purified from sodium hydroxide burned rabbit corneal tissue (Oryctolagus cuniculus)
Sequence (P13943 99-468): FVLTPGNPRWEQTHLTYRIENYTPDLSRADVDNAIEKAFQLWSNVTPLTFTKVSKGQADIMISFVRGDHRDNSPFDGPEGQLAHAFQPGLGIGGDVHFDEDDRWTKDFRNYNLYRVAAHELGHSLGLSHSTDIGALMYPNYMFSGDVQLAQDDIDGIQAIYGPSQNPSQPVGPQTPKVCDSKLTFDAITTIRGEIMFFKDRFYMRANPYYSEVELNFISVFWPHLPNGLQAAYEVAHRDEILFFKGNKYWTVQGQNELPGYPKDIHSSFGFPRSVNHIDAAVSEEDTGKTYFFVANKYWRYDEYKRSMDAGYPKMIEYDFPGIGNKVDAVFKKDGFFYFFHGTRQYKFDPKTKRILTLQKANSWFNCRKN
Protocol Text: Qualitative SDS-PAGE assay of collagen degradation by corneal collagenase
Assay type: biochemical
Assay Context: SDS-PAGE, visual estimate; Type I collagen 0.4 mg/ml, 3 hours at 30° C.
Reported Estimated IC50 Range values for the following compounds.

# Compound, Estimated IC50 Range
measured = [
    ("C[C@H]1c2cccc(O)c2C(=O)C2=C(O)[C@]3(O)C(=O)C(C(N)=O)=C(O)[C@@H](N(C)C)[C@@H]3[C@@H](O)[C@@H]21", "200 to 1000 µM"),
    ("CC(=O)N[C@@H](CS)C(=O)O", "10000 to 30000 µM"),
    ("N[C@@H](CS)C(=O)O", "3000 to 10000 µM"),
    ("O=C([O-])CC(O)(CC(=O)[O-])C(=O)[O-].[Na+].[Na+].[Na+] [Sodium Citrate, sodium citrate]", "10000 to 30000 µM"),
]

Now for another entry.
Item under review: `CN(C)[C@@H]1C(O)=C(C(N)=O)C(=O)[C@@]2(O)C(O)=C3C(=O)c4c(O)cccc4[C@@](C)(O)[C@H]3C[C@@H]12` . Reported Estimated IC50 Range?
1000 to 2000 µM
